Measured MIC, listed per entry for reference.
Tested on: Brachyspira hyodysenteriae
Assay: Minimum inhibitory concentration against Serpulina hyodysenteriae was determined
Type: functional
Conditions: Brachyspira hyodysenteriae; read-out: MIC
Answer in mg/L, number only, no unit symbol.

{"columns": ["compound", "unitText", "MIC"],
 "data": [
  ["C=CCOc1ccc(/C=C(\\C)C(=O)N[C@@H]2[C@H](O)[C@@H](O)[C@H]3OCO[C@H]3[C@@H]2O)cc1O", "mg/L", 0.78],
  ["C=CCOc1ccc(/C=C(\\C)C(=O)N[C@@H]2[C@H](O)CCC[C@@H]2O)cc1O", "mg/L", 12.5]
]}

For the next question, use this compound.
[in] Recorded MIC for CC(=O)[C@H]1O[C@@H](Oc2ccc(/C=C(\C)C(=O)N[C@@H]3[C@H](O)[C@@H](O)[C@H]4OCO[C@H]4[C@@H]3O)cc2O)[C@@H](O)[C@@H]1O [HYGROMYCIN A] , please?
[out] 1.56
